settings: 328.2 K, Pendant drop shape
Measured Parameter: surface tension liquid-gas (mN/m)

• CCn1cc[n+](C)c1.N#CN=C=[N-] [1-ethyl-3-methylimidazolium dicyanamide] = 56
• CCCC[n+]1ccn(C)c1.O=S(=O)([N-]S(=O)(=O)C(F)(F)F)C(F)(F)F = 31.69
• CCn1cc[n+](C)c1.N#C[S-] [1-ethyl-3-methylimidazolium thiocyanate] = 50.5
• CC(=O)[O-].CCn1cc[n+](C)c1 [1-ethyl-3-methylimidazolium acetate] = 45.33

====

conditions: 308.2 K, Pendant drop shape
surface tension liquid-gas vs 50 mN/m: less than gives satisfied; not less than gives not satisfied.

* CCn1cc[n+](C)c1.N#C[S-] [1-ethyl-3-methylimidazolium thiocyanate] | not satisfied
* CC(=O)[O-].CCn1cc[n+](C)c1 [1-ethyl-3-methylimidazolium acetate] | satisfied
* CCn1cc[n+](C)c1.N#CN=C=[N-] [1-ethyl-3-methylimidazolium dicyanamide] | not satisfied
* CCn1cc[n+](C)c1.COP(=O)([O-])OC [1-ethyl-3-methylimidazolium dimethylphosphate] | satisfied
* CCCC[n+]1ccn(C)c1.O=S(=O)([N-]S(=O)(=O)C(F)(F)F)C(F)(F)F | satisfied

====

Measured surface tension liquid-gas of individual entries
conditions: 338.3 K, Pendant drop shape
Measured Parameter: surface tension liquid-gas (mN/m)

* CCn1cc[n+](C)c1.O=S(=O)([O-])C(F)(F)F [1-ethyl-3-methylimidazolium trifluoromethanesulfonate] | 39.5
* CCCCn1cc[n+](C)c1.O=S(=O)([O-])C(F)(F)F [1-butyl-3-methylimidazolium trifluoromethanesulfonate] | 34.3
* CC(=O)[O-].CCn1cc[n+](C)c1 [1-ethyl-3-methylimidazolium acetate] | 44.74
* CCn1cc[n+](C)c1.N#C[S-] [1-ethyl-3-methylimidazolium thiocyanate] | 49.8
* CCn1cc[n+](C)c1.Cc1ccc(S(=O)(=O)[O-])cc1 [1-ethyl-3-methylimidazolium 4-methylbenzenesulfonate] | 43

====

details: 298.2 K, Pendant drop shape
Numbers after ± are expanded uncertainties.
Measured Parameter: surface tension liquid-gas

* CCn1cc[n+](C)c1.CO[PH](=O)[O-] [1-ethyl-3-methylimidazolium methyl phosphonate] | 49 ± 0.6 mN/m
* CCn1cc[n+](C)c1.O=S(=O)([O-])C(F)(F)F [1-ethyl-3-methylimidazolium trifluoromethanesulfonate] | 41.3 ± 0.5 mN/m
* CCn1cc[n+](C)c1.N#C[S-] [1-ethyl-3-methylimidazolium thiocyanate] | 53.3 ± 1 mN/m
* CCCC[n+]1ccn(C)c1.O=S(=O)([N-]S(=O)(=O)C(F)(F)F)C(F)(F)F | 33.35 ± 0.38 mN/m

====

conditions: 318 K, Pendant drop shape
Recorded surface tension liquid-gas, one value per entry.
Measured Parameter: surface tension liquid-gas (mN/m)

- CCCCn1cc[n+](C)c1.O=S(=O)([O-])C(F)(F)F [1-butyl-3-methylimidazolium trifluoromethanesulfonate]: 34.95
- CCn1cc[n+](C)c1.Cc1ccc(S(=O)(=O)[O-])cc1 [1-ethyl-3-methylimidazolium 4-methylbenzenesulfonate]: 44.2
- CCn1cc[n+](C)c1.CO[PH](=O)[O-] [1-ethyl-3-methylimidazolium methyl phosphonate]: 47.9
- CCn1cc[n+](C)c1.COP(=O)([O-])OC [1-ethyl-3-methylimidazolium dimethylphosphate]: 44.7
